Listed here: items and their measured cytotoxicity at 10 µM.
- protocolDetails: Toxicity liver stage against HepG2, at 10uM
- Type: cell-based
- Parameters: test concentration 10 uM, cell line HepG2-A16-CD81EGFP
- runParameters: human, HepG2-A16-CD81EGFP cells; read-out: INHIBITION
readoutName: cytotoxicity at 10 µM (%)

[
  {
    "compound": "Cc1nc(N2CCCC2)nc2c1CCN(C(=O)CC1CC1)CC2",
    "readoutName": "cytotoxicity at 10 µM",
    "resultNumber": -9.6
  },
  {
    "compound": "CC(C)CC(C)N(C)C(=O)CCn1cccn1 (stereo unspecified)",
    "readoutName": "cytotoxicity at 10 µM",
    "resultNumber": 0.395
  },
  {
    "compound": "COc1ccc(C(=O)NC2CC2)c(OC2CCN(C3CCC3)CC2)c1",
    "readoutName": "cytotoxicity at 10 µM",
    "resultNumber": 0.542
  },
  {
    "compound": "O=C(C1=CCCC1)N1CCC[C@]2(C[C@@H](OCc3ccccn3)CO2)C1",
    "readoutName": "cytotoxicity at 10 µM",
    "resultNumber": 9.79
  },
  {
    "compound": "CCc1nc(C)c(CN2CCN(c3ncnc4scc(C)c34)CC2)[nH]1",
    "readoutName": "cytotoxicity at 10 µM",
    "resultNumber": 16.4
  },
  {
    "compound": "Cc1cc(C2CCCN(CCC(=O)N3CCc4ccccc43)C2)n[nH]1 (stereo unspecified)",
    "readoutName": "cytotoxicity at 10 µM",
    "resultNumber": -7.9
  },
  {
    "compound": "O=C(NCCc1ccccc1)N1C[C@@H]2C[C@H](C(=O)N3CCCC3)[C@H](C1)O2",
    "readoutName": "cytotoxicity at 10 µM",
    "resultNumber": 6.95
  },
  {
    "compound": "CCc1noc(C)c1C(=O)N1CCCN(Cc2csc(C)n2)CC1",
    "readoutName": "cytotoxicity at 10 µM",
    "resultNumber": -2.81
  },
  {
    "compound": "CN(CCc1ccccc1)C(=O)CN1C(=O)OC[C@@H]1c1ccccc1",
    "readoutName": "cytotoxicity at 10 µM",
    "resultNumber": -47
  },
  {
    "compound": "Cc1ncsc1CN1C[C@@H](OCC2CC2)[C@H]2OCCC[C@H]21",
    "readoutName": "cytotoxicity at 10 µM",
    "resultNumber": -9.76
  },
  {
    "compound": "CC(c1cn2ccsc2n1)n1cc2[nH]cccc-2c1=O (stereo unspecified)",
    "readoutName": "cytotoxicity at 10 µM",
    "resultNumber": -1.97
  }
]

---

The reader will find reported cytotoxicity at 10 µM values listed item by item below.
- protocolDetails: Toxicity liver stage against HepG2, at 10uM
- Type: cell-based
- Set-up: test concentration 10 uM, cell line HepG2-A16-CD81EGFP
- runParameters: human, HepG2-A16-CD81EGFP cells; read-out: INHIBITION

[
  {
    "compound": "Cn1cc2c(n1)C(COCC1CC1)CN(Cc1ccccn1)C2 (configuration not stated)",
    "cytotoxicity at 10 µM (%)": -1.8
  },
  {
    "compound": "CSc1nccn1-c1cccc(C(=O)NCC(F)(F)F)c1",
    "cytotoxicity at 10 µM (%)": -0.312
  },
  {
    "compound": "Cc1ccccc1CCCN1CCS(=O)(=O)CC1C (configuration not stated)",
    "cytotoxicity at 10 µM (%)": 1.57
  },
  {
    "compound": "COCCn1ccc2ccc(C(=O)N3CCN(C(C)=O)CC3)cc21",
    "cytotoxicity at 10 µM (%)": -8.6
  },
  {
    "compound": "CS(=O)(=O)CCOCCNc1ccc(Br)cn1",
    "cytotoxicity at 10 µM (%)": -4.71
  },
  {
    "compound": "Cn1cc(CNC2CCc3c(ccc(=O)n3C)C2)cn1 (configuration not stated)",
    "cytotoxicity at 10 µM (%)": -115
  },
  {
    "compound": "CCOC(=O)C1CCCN(c2nccc(-n3nc(C)cc3C)n2)C1 (configuration not stated)",
    "cytotoxicity at 10 µM (%)": -11
  },
  {
    "compound": "CN(Cc1ccccc1)c1ncccc1CNC1CN2CCC1CC2 (configuration not stated)",
    "cytotoxicity at 10 µM (%)": 1.63
  },
  {
    "compound": "Cc1ccnn1CC(=O)Nc1cc(-c2ccncc2)[nH]n1",
    "cytotoxicity at 10 µM (%)": -4.34
  },
  {
    "compound": "Cc1occc1CNC(=O)C1CCN(C(=O)OC(C)(C)C)C1 (configuration not stated)",
    "cytotoxicity at 10 µM (%)": 3.67
  },
  {
    "compound": "CC(CC(=O)Nc1ncn(CC(=O)N2CCCCCC2)n1)C1CC1 (configuration not stated)",
    "cytotoxicity at 10 µM (%)": 5.75
  },
  {
    "compound": "CCN1CCCC(C)(C(=O)NCc2nncn2CCc2ccccc2)C1 (configuration not stated)",
    "cytotoxicity at 10 µM (%)": -10.2
  }
]

Origin of measurements: ChEMBL document CHEMBL4513216
